# Subject Of Test: Nuclear receptor subfamily 5 group A member 2 (Homo sapiens) (UniProt O00482)
# Sequence (O00482 whole entry, looked up): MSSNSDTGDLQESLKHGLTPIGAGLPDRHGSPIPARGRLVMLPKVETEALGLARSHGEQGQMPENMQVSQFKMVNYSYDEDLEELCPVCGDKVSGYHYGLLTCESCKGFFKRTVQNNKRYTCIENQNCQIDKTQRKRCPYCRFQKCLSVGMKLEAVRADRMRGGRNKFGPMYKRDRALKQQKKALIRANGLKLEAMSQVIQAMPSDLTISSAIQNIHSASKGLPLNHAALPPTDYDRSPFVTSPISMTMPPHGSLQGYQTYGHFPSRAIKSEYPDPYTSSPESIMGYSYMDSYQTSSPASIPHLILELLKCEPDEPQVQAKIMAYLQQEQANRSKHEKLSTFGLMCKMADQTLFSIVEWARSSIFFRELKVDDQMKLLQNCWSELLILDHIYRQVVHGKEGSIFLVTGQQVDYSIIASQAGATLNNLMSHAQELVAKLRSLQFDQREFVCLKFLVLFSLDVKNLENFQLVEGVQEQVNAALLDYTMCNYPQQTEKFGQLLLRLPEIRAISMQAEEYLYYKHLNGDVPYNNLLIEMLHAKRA
# Test Summary: LRH-1 (NR5A2) inverse agonists, retest, confirmation, cell-based, luminescence (AID 651613);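 note: HEK293T cells co-transfected with LRH-1 and StAR promoter luciferase reporter; 0% = vehicle wells and 100% = parental cells lacking receptor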
# Measurement Conditions: cell-based LRH-1 luciferase reporter, inverse agonism; at 3.6 µM; hits give high values
Field: inhibition. Provide a value for each of the compounds that follow.
One number for each entry, in %.

CC(=O)c1cn(CC(=O)Nc2ccc(C)cc2C)c2ccccc12 : 71.5
Cc1ccc(C(=O)N/N=C\c2ccc([N+](=O)[O-])o2)cn1 : 59
Cc1ccccc1OCC(=O)N/N=C/c1ccc([N+](=O)[O-])o1 : 57.5
N=c1c2c(n(Cc3ccc(F)cc3)c3c1CCC3)CCCC2 : 101
Cc1ccc(CNC(=O)c2ccc([N+](=O)[O-])o2)cc1 : 57

Here is another compound to look at.
Query `Cc1cc(O)c(/C=N/Nc2cccc(Cl)c2)c(=O)o1` yields inhibition of 44.5

---

# Subject Of Test: Nuclear receptor coactivator 2 (Homo sapiens) (UniProt Q15596)
# Sequence (Q15596 whole entry, looked up): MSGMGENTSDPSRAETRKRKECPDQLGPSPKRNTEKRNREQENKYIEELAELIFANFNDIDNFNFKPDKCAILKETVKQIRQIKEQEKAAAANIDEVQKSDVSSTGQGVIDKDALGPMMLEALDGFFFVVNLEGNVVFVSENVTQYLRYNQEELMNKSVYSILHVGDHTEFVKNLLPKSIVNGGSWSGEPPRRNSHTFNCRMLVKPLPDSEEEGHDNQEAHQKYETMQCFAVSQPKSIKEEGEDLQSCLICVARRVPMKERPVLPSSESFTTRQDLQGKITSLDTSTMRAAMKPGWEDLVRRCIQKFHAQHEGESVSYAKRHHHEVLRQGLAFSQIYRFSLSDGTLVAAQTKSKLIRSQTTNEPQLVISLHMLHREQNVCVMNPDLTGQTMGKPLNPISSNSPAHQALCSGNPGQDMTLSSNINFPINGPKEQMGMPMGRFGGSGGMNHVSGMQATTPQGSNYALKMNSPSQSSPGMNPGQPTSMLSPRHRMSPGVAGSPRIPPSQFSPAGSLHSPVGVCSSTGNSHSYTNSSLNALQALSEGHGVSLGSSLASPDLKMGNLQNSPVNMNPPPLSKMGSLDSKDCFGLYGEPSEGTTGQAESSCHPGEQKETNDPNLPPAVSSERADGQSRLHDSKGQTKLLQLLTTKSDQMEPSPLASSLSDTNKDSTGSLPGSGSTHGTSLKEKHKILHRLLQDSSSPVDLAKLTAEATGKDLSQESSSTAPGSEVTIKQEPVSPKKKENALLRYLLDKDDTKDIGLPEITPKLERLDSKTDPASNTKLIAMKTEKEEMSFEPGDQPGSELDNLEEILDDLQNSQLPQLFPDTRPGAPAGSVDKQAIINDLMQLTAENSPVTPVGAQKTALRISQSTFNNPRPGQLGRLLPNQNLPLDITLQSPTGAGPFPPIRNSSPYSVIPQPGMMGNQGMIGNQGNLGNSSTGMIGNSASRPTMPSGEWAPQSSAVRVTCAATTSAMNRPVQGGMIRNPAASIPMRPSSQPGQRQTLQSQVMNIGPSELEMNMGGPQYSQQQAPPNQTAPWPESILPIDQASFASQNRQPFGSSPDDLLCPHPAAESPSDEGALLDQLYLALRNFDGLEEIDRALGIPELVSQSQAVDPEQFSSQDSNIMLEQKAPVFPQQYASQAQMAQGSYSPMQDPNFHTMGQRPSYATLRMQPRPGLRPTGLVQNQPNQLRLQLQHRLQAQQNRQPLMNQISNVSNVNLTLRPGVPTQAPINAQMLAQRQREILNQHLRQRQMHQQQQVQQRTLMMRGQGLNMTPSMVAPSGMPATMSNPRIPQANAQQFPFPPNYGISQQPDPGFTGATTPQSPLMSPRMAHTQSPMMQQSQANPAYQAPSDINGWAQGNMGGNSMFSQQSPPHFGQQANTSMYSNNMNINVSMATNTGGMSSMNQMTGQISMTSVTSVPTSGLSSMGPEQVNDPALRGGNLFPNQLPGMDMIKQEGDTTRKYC
# Test Summary: SRC2 coactivator transcriptional activity inhibitors, confirmation, cell-based, luminescence, HEK293, triplicate (AID 652008);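 note: 0% = DMSO-treated cells and 100% = Gossypol at 36 µM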
# Measurement Conditions: HEK293 GAL4-SRC2 luciferase reporter, at 8.9 µM, hits give high values
Measured Endpoint: inhibition (%)
Answers are plain numbers, in %.

# example entries with known answers
CCOc1ccc(C(=O)CCC(=O)Nc2cccc(S(=O)(=O)N3CCCCC3)c2)cc1 : 44.2
O=C(CN1C(=O)NC2(CCCCC2)C1=O)Oc1ccc2c(C(F)(F)F)cc(=O)oc2c1 : -1.74

The following compounds each have a reported value; give each one's inhibition.
1. Cc1nc([N+](=O)[O-])c(Br)n1Cc1ccccc1
2. COc1ccc(C(=O)/C=C/Nc2ccccn2)cc1

Result:
11.9
30.8

The following compounds each have a reported value; give each one's inhibition.
1. Cc1nn(-c2ccccc2)c(C)c1NC(=O)COc1ccc(Cl)cc1Cl
2. Cc1ccc(NC(=O)C2CCN(C(=O)c3ccccc3C)CC2)nc1
3. COc1ccc(-c2cc(C(=O)O)c(C)o2)cc1OC
4. Nc1ncnc2c(C3OC(CO)C(O)C3O)scc12 (stereo unspecified)
5. COc1cc2ccccc2ccc1=NO
6. Cc1ccc2c(c1)N(C(C)C(=O)NCc1ccc3c(c1)OCO3)C(=O)CO2 (stereo unspecified)
7. CCOc1ccc(C(=O)C(CN2CCOCC2)c2ccccc2)cc1 (stereo unspecified)

Result:
1: 16.2; 2: -11.5; 3: -11.1; 4: 57.2; 5: 59.6; 6: -19.4; 7: 42.6

---

# Subject Of Test: Induced myeloid leukemia cell differentiation protein Mcl-1 (Homo sapiens) (UniProt Q07820)
# Sequence (Q07820 whole entry, looked up): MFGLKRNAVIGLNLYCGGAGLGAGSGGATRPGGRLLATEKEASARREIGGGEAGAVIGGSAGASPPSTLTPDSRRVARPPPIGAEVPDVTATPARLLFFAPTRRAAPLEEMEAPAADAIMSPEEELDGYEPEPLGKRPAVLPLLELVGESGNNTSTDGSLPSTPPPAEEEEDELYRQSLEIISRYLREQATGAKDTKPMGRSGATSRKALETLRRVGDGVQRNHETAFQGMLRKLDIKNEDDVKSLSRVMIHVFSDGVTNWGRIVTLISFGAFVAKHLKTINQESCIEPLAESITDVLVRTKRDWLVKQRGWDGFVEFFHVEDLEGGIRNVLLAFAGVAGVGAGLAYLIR
# Test Summary: inhibitors of MCL1 binding to BIM-BH3, confirmation, biochemical, fluorescence polarization, triplicate (AID 2168);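 note: 0% = DMSO wells and 100% = unlabeled Bim-BH3 control peptide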
# Measurement Conditions: GST-MCL1 / FITC-Bim-BH3 fluorescence polarization; at 10.9 µM
The list shows a part of the results. Activity calls are given as the source filed them.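 The calls were made as follows: active = inhibition above the average of all tested compounds plus 3 SD (cut at about 40% in these data); inactive = the rest.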
Respond using exactly one of the listed classes: 1 (yes) (active), 0 (no) (inactive)

Cc1ccc(S(=O)(=O)C(C#N)c2nc3ccccc3nc2N2CCCC2)cc1C (stereo not given) : 1 (yes)
Cc1ccc(C(=O)NC(=S)Nc2ccc(N3CCOCC3)cc2)cc1 : 0 (no)
CCCn1c(O)c(CN2CCCC(C)C2)c(C)c(C#N)c1=O (stereo not given) : 0 (no)
O=C(C1=C(O)C(=O)N(c2ncccn2)C1c1cccs1)c1ccco1 (stereo not given) : 1 (yes)

Read the next record carefully.
Request: What was the test verdict on `O=S(=O)([N-]c1nc2ccccc2nc1-[n+]1ccc(Cc2ccccc2)cc1)c1ccc(Br)s1` ?
Result: 0 (no)

---

Field: activation. Provide a value for each of the compounds that follow.
# Subject Of Test: Peroxisome proliferator-activated receptor gamma (Homo sapiens) (UniProt P37231)
# Sequence (P37231 whole entry, looked up): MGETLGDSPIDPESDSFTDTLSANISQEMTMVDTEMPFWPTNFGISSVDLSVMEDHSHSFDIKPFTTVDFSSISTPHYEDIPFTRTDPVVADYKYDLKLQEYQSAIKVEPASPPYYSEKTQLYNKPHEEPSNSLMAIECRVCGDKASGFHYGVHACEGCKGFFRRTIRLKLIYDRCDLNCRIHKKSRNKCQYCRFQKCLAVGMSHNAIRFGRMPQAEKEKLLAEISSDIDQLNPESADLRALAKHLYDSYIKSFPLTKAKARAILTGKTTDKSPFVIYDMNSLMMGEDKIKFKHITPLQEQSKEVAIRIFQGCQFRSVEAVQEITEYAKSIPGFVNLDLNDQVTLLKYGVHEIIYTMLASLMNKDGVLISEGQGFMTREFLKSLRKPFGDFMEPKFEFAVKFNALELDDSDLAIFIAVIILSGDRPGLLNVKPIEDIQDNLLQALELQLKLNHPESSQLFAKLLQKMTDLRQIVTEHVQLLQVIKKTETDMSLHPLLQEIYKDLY
# Test Summary: PPARgamma agonists recruiting SRC-1 coactivator, confirmation, biochemical (AID 1300);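 note: 0% = vehicle wells and 100% = reference agonist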
# Measurement Conditions: PPARgamma–SRC-1 coactivator recruitment biochemical assay; at 8 µM; hits give high values
Some of the results follow.
Numbers only, in %.

# example entries with known answers
CCN(CC)c1ccc2oc(=O)c(C)nc2c1 : 6.29
CC(=O)c1sc2nc(SCC(=O)N3CCCCC3)[nH]c(=O)c2c1C : 20.8
CCN(/N=C/c1ccc(N(C)C)cc1)c1nc2ccccc2[nH]1 : 6.2
Cc1cc(C)c2c(c1)cc(C)c1nnc(SCC(=O)Nc3cc(C)on3)n12 : 17.6
CCOc1ccc(NC(=O)CSc2ncnc3c2sc2ccccc23)cc1 : 29.5

Here is another compound to look at.
Query `CSc1c(SCc2ccccc2)cnn(Cc2ccccc2)c1=O` yields activation of 28.5

---

# Subject Of Test: Nuclear receptor coactivator 2 (Homo sapiens) (UniProt Q15596)
# Test Summary: SRC2 coactivator transcriptional activity inhibitors, confirmation, cell-based, luminescence, HEK293, triplicate (AID 652008);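 note: 0% = DMSO-treated cells and 100% = Gossypol at 36 µM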
# Measurement Conditions: HEK293 GAL4-SRC2 luciferase reporter, at 8.9 µM, hits give high values
Kindly return true (1) if reported inhibition is no lower than 30%; return false (0) if it is lower.

The examples below pair each entry with its known result.
C=CCn1c(C)cc(C2=NNC(=NC(C)(C)C)SC2)c1C : true (1)
CCOC(=O)CSc1[nH]c2cc(OC)ccc2c1[N+](=O)[O-] : false (0)
N#CC(C#N)c1ccnc2ccccc12 : true (1)

Request: Hello, I need to know if `CCOC(=O)c1ccccc1NC(=O)Cn1c(-c2nonc2N)nc2ccccc21` has measured inhibition not below 30%. Thanks!
Result: false (0)

Request: Hello, I need to know if `Cc1nc(N/N=C/c2ccccn2)sc1C` has measured inhibition not below 30%. Thanks!
Result: true (1)

Request: Hello, I need to know if O=C(O)C1CC=CCC1C(=O)Nc1ccc2c(c1)OCCO2 (stereo unspecified) has measured inhibition not below 30%. Thanks!
Result: false (0)

Request: Hello, I need to know if `CC1CCN(C2=NC(=O)/C(=C/c3ccccc3F)S2)CC1` has measured inhibition not below 30%. Thanks!
Result: false (0)

---

Field: inhibition. Provide a value for each of the molecules that follow.
# Test Summary: VP16 transactivation inhibitors, counter-screen for SRC1 inhibitor project, cell-based, luminescence, high throughput (AID 588824)
# Measurement Conditions: cell-based VP16 transactivation luciferase luminescence; at 3.6 µM; hits give high values
Answers are plain numbers, in %.

# example entries with known answers
COC(=O)c1cccc(NC(=O)CN2C(=O)c3ccccc3C2=O)c1 : -3.69
COc1ccc(CCN(C)C(=O)CSc2nnc(C3CC3)n2N)cc1OC : 12.5

The following molecules each have a reported value; give each one's inhibition.
1. O=[N+]([O-])c1cccc(C=NNc2ccc3ccccc3n2)c1O
2. Cc1nn(Cc2cccc(F)c2)c(C)c1NC(=O)c1ccc(COc2ccccc2Cl)cc1
3. C=C1C(=O)c2sccc2C(c2ccc(OC)c(OC)c2)C1COC(C)=O (configuration not stated)
4. O=c1cc(N2CCN(c3ccccc3Cl)CC2)[nH]c(=O)n1Cc1ccc(F)cc1
5. COc1cccc(/C=N/NC(=O)c2c(-c3ccccc3)noc2C)c1O

Result:
1. -49.2
2. 46.7
3. 58.4
4. 16.8
5. 34.6

The following molecules each have a reported value; give each one's inhibition.
1. COC(=O)Cc1[nH]n(-c2nc3ccccc3s2)c(=O)c1C(C)=Nc1ccc(OC)cc1
2. CCOc1ccccc1-n1c(SCC(=O)Nc2ccccc2C(=O)O)nc2ccccc2c1=O
3. CCCCC(=O)NC(c1ccc(C(C)C)cc1)c1ccc2cccnc2c1O (configuration not stated)
4. COc1cccc2c1OC1(C)CC2NC(=O)N1c1cccc(C(=O)Nc2ccc3c(c2)OCCO3)c1 (configuration not stated)
5. Cc1cc(C)n(-c2ccc(C(=O)Nc3ccc(C)c(S(=O)(=O)N4CCOCC4)c3)cc2)n1
6. COc1cccc(Cn2c(NCc3cccnc3)nc3c2c(=O)n(C)c(=O)n3C)c1

Result:
1: 73.8; 2: 14.7; 3: 66; 4: -19.2; 5: -1.58; 6: 38

The following molecules each have a reported value; give each one's inhibition.
1. Cc1ccc(S(=O)(=O)N2CCN(S(C)(=O)=O)CC2)cc1
2. CC(=O)Nc1ccc(NC(=O)C2Cc3c(-c4ccco4)ccnc3O2)cc1 (configuration not stated)

Result:
1: 6.89; 2: 8.12

---

# Subject Of Test: Nuclear receptor subfamily 5 group A member 2 (Homo sapiens)
# Test Summary: LRH-1 (NR5A2) inverse agonists, retest, confirmation, cell-based, luminescence (AID 651613);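 note: HEK293T cells co-transfected with LRH-1 and StAR promoter luciferase reporter; 0% = vehicle wells and 100% = parental cells lacking receptor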
# Measurement Conditions: cell-based LRH-1 luciferase reporter, inverse agonism; at 3.6 µM; hits give high values
Measured Endpoint: inhibition (%)
Answers are plain numbers, in %.

COC1=CC(=O)c2c(ccc3ncnc(N)c23)C1=O : 82.8
CCCN(CC(=O)Nc1ccccc1C)CC(=O)Nc1ccc(Br)cc1F : 58.6
COc1ccc(-c2nc3c([nH]2)c(=O)n(C)c(=O)n3C)c(OC)c1 : 24.5
Cc1c(C)c2ccc(OCC(=O)Nc3ccccn3)c(C)c2oc1=O : 68.8
C=CCn1c(SCC(=O)Nc2ccccc2C)nc(O)cc1=O : 57.8
O=C(CN1C(=O)NC2(CCCC2)C1=O)NCCc1ccc(F)cc1 : 44.2

The following compounds each have a reported value; give each one's inhibition.
1. Cc1ccc(C(=O)Sc2cccccc2=O)cc1
2. CNc1ncnc(Sc2nc(N)nc3nc[nH]c23)c1[N+](=O)[O-]
3. N=c1c2c(n(Cc3cccc(Cl)c3)c3c1CCC3)CCCC2
4. CCOCc1c(C(=O)Nc2ccccc2N2CCN(C)CC2)oc2ccccc12
5. COc1cc(-c2cc(-c3ccc(O)cc3)nc(N)c2C#N)ccc1O

Result:
1. 107
2. 52.6
3. 108
4. 70.5
5. 68.3

The following compounds each have a reported value; give each one's inhibition.
1. CC(C)n1c(SCC(=O)Nc2ccc(N3CCOCC3)cc2)nnc1-c1ccco1
2. CCn1cc(CN(C)S(=O)(=O)c2ccc3ccccc3c2)c(C)n1
3. COc1cc(NCCCCCCN)c2ncccc2c1OC
4. Cc1ccc(S(=O)(=O)NCc2ccncc2)c(C)c1C

Result:
55.5
50.9
49
56.9

The following compounds each have a reported value; give each one's inhibition.
1. CCCc1nc(SCC(=O)c2ccc(F)cc2)c2ccccc2n1
2. COc1ccc2c(c1)/C(=C/c1cc(OC)c(OC)c(OC)c1)C(=O)N2
3. Cc1ccc(C(=O)C(C(=O)/C=C/c2ccccc2)=C2SCCCS2)cc1
4. CN(C)CCC(=O)N1C/C(=C/c2ccccc2)C(=O)/C(=C\c2ccccc2)C1
5. O=C(O)c1c[nH]c2c([N+](=O)[O-])cccc2c1=O

Result:
1: 46.9; 2: 51; 3: 54.2; 4: 84; 5: 35.2

The following compounds each have a reported value; give each one's inhibition.
1. C#CCN(C[C@@H]1[C@@H](OC(=O)NCC2CCCCC2)[C@@H](OC(=O)NCC2CCCCC2)Cn2c(=O)ccc(=O)n21)S(=O)(=O)c1ccc(C)cc1
2. N#Cc1ccccc1NC(=O)c1ccccc1OCC(=O)Nc1ccc2c(c1)oc1ccccc12

Result:
62.4
33.9

Just for reference, PubChem BioAssay is where these values come from.
